Data origin, for the record: patent US8546440B2

# pIC50 values compiled below
tested on: Aβ42; assay: Screening for γ-secretase-modulating activity, Method 1: Aβ42 sandwich ELISA in supernatant of SKNBE2 cells carrying APP 695 wild type (Tables 12a, 12b); assay type: cell-based; details: Homo sapiens; Table 12b; Method 1, SKNBE2 cells carrying APP 695 wild type, cell supernatant ELISA; averaged IC50 values, percentage of control vs log concentration
To interpret pIC50, take it as minus log10 of a concentration measured in moles per litre.

In the examples that follow, each entry is paired with its recorded pIC50.
{"columns": ["smi", "pIC50"],
 "data": [
  ["COc1cc(Nc2cccn3c(C)c(-c4ccccc4Cl)nc23)ccc1-n1cnc(C)n1", 7.96],
  ["COc1ccccc1-c1cn2cccc(Nc3ccc(-n4cnc(C)c4)c(OC)c3)c2n1", 6.98],
  ["COc1cc(Nc2cccn3c(Cl)c(CC4CCCCC4)nc23)ccc1-n1cnc(C)c1", 7.57]
]}

Here is the next item to consider.
With Aβ42 as the test system, Cc1cn(-c2ccc(Nc3cccn4cc(C5CCOCC5)nc34)cc2F)cn1 showed pIC50 of 6.48

* * *

test system: Aβ42; experiment: Screening for γ-secretase-modulating activity, Method 1: Aβ42 sandwich ELISA in supernatant of SKNBE2 cells carrying APP 695 wild type (Tables 12a, 12b); format: cell-based; details: Homo sapiens; Table 12b; Method 1, SKNBE2 cells carrying APP 695 wild type, cell supernatant ELISA; averaged IC50 values, percentage of control vs log concentration
Measured pIC50 by item
# pIC50 = -log10(concentration in molar units)

{"columns": ["compound", "experimentalTarget", "pIC50"],
 "data": [
  ["COc1cc(Nc2cccn3cc(-c4ccc(F)cc4C)nc23)ccc1-n1cnc(C)n1 [Compound 89]", "Aβ42", 7.07],
  ["CCN(CC)c1ccc(-c2cn3cccc(Nc4ccc(-n5cnc(C)c5)c(OC)c4)c3n2)cc1 [Compound 39]", "Aβ42", 7.17]
]}

Value of pIC50 reported for the compound COc1cc(Nc2cccn3cc(-c4ccc(F)cc4)nc23)ccc1-n1cnc(C)c1 [Compound 1] is 7.01
